molecular target: Fyn (UniProt P06241); test: phosphorylation enrichment, bacterial display (enrichment ratio); higher = better substrate or ligand; peptides without Tyr show the background
Sequence (P06241 whole entry, looked up): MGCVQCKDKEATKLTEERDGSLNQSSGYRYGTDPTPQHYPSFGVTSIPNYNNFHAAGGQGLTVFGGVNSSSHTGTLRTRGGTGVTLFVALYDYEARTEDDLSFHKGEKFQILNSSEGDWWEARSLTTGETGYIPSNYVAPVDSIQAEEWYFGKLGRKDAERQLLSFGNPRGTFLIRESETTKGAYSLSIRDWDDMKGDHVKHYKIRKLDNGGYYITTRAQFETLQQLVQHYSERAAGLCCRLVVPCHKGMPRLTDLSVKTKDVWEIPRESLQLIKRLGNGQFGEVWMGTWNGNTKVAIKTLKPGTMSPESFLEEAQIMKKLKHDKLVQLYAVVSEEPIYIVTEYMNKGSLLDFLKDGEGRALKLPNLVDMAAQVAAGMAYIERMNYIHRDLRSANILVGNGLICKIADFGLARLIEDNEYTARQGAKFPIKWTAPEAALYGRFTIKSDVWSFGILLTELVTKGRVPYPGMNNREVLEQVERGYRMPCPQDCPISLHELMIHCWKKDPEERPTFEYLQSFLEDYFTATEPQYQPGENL
value.type: phosphorylation enrichment
Form rule: numeric answer, no unit written next to it.

- YEEDSYSHVMA [FDPS_Y388_I391V]: 0.775

# next sequence below
Data request: Which phosphorylation enrichment is reported for this sequence? CNNFIYGGCRG [SPINT2_Y163]
Data returned: 3.89

###

molecular target: Grb2 SH2 (UniProt P62993); assay: SH2 binding enrichment of the phosphorylated peptide, bacterial display (enrichment ratio); higher = better substrate or ligand; peptides without Tyr show the background
Sequence (P62993 whole entry, looked up): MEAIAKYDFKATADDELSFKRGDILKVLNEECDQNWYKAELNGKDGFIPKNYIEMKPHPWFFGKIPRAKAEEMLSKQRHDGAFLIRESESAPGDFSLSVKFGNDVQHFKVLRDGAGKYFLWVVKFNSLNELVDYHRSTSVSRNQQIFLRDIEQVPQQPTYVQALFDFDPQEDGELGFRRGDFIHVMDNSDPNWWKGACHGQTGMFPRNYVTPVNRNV
Measured SH2 binding enrichment, listed per entry for reference.
Form rule: numeric answer, no unit written next to it.

- RDIHDYIKHLG [UNC13C_Y308]: 0.92
- VLAAQYTTVGR [SGSH_Y240_D235V]: 0.953
- RAEIVYKSPVV [MAPT_Y711_G706R]: 0.869
- NTGLDYIKFTW [HRH1_Y386]: 0.892
- ISRDVYSTDYY [NTRK2_Y702_M697I]: 0.745
- IWIFHYAKGQP [MPZ_Y82_S78W]: 1.18
- QGIFGYHHHMQ [UFSP2_Y287_Y290H_YF]: 1.16
- HHTDEYEFDEL [TGM1_Y134_YF]: 1.45

Data request: Record GGGFGYQKTKK [DDX18_Y643] : what is its SH2 binding enrichment with Grb2 SH2 (UniProt P62993)?
Data returned: 1.05

Data request: Record SNVEQYQAMVT [TPR_Y965] : what is its SH2 binding enrichment with Grb2 SH2 (UniProt P62993)?
Data returned: 0.754

Data request: Record KPGVNYYFRVS : what is its SH2 binding enrichment with Grb2 SH2 (UniProt P62993)?
Data returned: 0.755
